Provenance of the data: the supplement of paper PMC11208160

# experiment.summary: recombinant barcode read abundance after kanamycin selection (control-corrected) (log10(CPM+1)); higher = more efficient recombination; sequences stand for … in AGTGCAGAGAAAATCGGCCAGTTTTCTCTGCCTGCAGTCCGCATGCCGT…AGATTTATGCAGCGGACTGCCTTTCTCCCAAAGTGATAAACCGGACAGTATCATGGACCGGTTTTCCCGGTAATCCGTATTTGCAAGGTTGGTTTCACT; site = the 11-nt target
Recorded recombinant barcode read abundance (log10) determines the label; the label ranges are lower level (below 0.2), middle level (0.2 to below 1), upper level (1 or more)

| polymer.sequence | class.name |
| --- | --- |
| GTAAGCTCTTGGGTTCTAACCTGTTGCCT (site GTAAGCTCTAG) | upper level |
| AGTCGTTCTTGGGTTCTAACCTGTTGCCT (site AGTCGTTCTAG) | middle level |
| GGTCCAACTTGGGTTCTAACCTGTTGCCT (site GGTCCAACTAG) | middle level |
| AGTGACTCTTGGGTTCTAACCTGTTGCCT (site AGTGACTCTAG) | upper level |
| CCTACACCTTGGGTTCTAACCTGTTGCCT (site CCTACACCTAG) | middle level |
| ACGCGAGCTTGGGTTCTAACCTGTTGCCG (site ACGCGAGCTCA) | middle level |
| ATCGGTCCTTGGGTTCTAACCTGTTGCCT (site ATTGGTCCTAG) | lower level |
| GACGGATCTTGGGTTCTAACCTGTTGCAT (site GACGGATCTAT) | upper level |
| GTTAGGCCTTGGGTTCTAACCTGTTGCCT (site GATAGGCCTAG) | lower level |
| GAGATCCCTTGGGTTCTAACCTGTTGCCA (site GGGGTCCCTTG) | middle level |
| CCTCAGTCTTGGGTTCTAACCTGTTGCTT (site CCTCAATCTAA) | middle level |
| ACAATACCTTGGGTTCTAACCTGTTGCCT (site ACAATACCTAG) | upper level |
| GATCGAGCTTGGGTTCTAACCTGTTGCCT (site GATCGAGCTAG) | upper level |
| GTGATAGCTTGGGTTCTAACCTGTTGCGG (site GATATAGCTCC) | lower level |
| TATTCTCCTTGGGTTCTAACCTGTTGCTT (site TATTCTCCTAC) | lower level |
| TAAGGCCCTTGGGTTCTAACCTGTTGCTT (site TAAGGCCCTAA) | upper level |
| TCTCAGCCTTGGGTTCTAACCTGTTGCCT (site TCTCCGCCTAG) | lower level |
| CGGCGTGCTTGGGTTCTAACCTGTTGCCT (site CGGCGTGCTAG) | upper level |
| TAGCACCCTTGGGTTCTAACCTGTTGCCA (site TAGCACCCTCG) | middle level |
| ATGATTCCTTGGGTTCTAACCTGTTGCCT (site ACGATTCCTAG) | lower level |
| CGTGGGCCTTGGGTTCTAACCTGTTGCCT (site CATGGGCCTAG) | middle level |

====

Below, each entry is listed alongside its reported recombinant barcode read abundance (log10).
# experiment.summary: recombinant barcode read abundance after kanamycin selection (control-corrected) (log10(CPM+1)); higher = more efficient recombination; sequences stand for … in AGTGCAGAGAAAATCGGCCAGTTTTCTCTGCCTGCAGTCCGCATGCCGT…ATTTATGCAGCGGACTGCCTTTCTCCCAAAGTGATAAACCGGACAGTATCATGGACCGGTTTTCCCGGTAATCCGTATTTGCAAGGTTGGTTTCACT; site = the 11-nt target
observation.type: recombinant barcode read abundance (log10)

| polymer.sequence | quantitative.result |
| --- | --- |
| GCGCGACCCTGGGTTCTAACCTGTTGCTTGG [GCGCGACCTAA_LTGcore_CC_RTGcore_CC] (site GCGCGACCTAA) (LTG core: CC, RTG core: CC) | 0.0343 |
| ATGCTTTCATGGGTTCTAACCTGTTGCCTAG [ATGCTTTCTAG_LTGcore_CA_RTGcore_CT] (site ATGCTTTCTAG) (LTG core: CA, RTG core: CT) | 0.0483 |
| AAACAGTGTTGGGTTCTAACCTGTTGCCTAG [AAACAGTCTAG_LTGcore_GT_RTGcore_CT] (site AAACAGTCTAG) (LTG core: GT, RTG core: CT) | 0.0452 |
| AAACACACTTGGGTTCTAACCTGTTGCCTTC [AAACACACTAG_LTGcore_CT_RTGcore_GA] (site AAACACACTAG) (LTG core: CT, RTG core: GA) | 0.477 |
| AGGAGGTTTTGGGTTCTAACCTGTTGCCTAG [AGGAGGTCTAG_LTGcore_TT_RTGcore_CT] (site AGGAGGTCTAG) (LTG core: TT, RTG core: CT) | 0.0313 |
